- Test system: Plasmopara viticola
- experiment: Plasmopara test (grapevines)/preventive
- Format: in vivo
- study-conditions: preventive spray, 10 ppm of active ingredient, evaluated 6 days after inoculation
- Method: Solvent: 24.5 parts by weight of acetone • 24.5 parts by weight of dimethylacetamide Emulsifier: 1 part by weight of alkylaryl polyglycol ether To produce a suitable preparation of active compound, 1 part by weight of active compound is mixed with the stated amounts of solvent and emulsifier, and the concentrate is diluted with water to the desired concentration. […] The test is evaluated 6 days after the inoculation. […]
measured-property: Eff. % (%)
The reply should contain only the number, in %.

CC(OC(=O)Nc1cccc(CO/N=C(/c2ccccc2)c2noc(=O)n2C)n1)c1ccccc1 (stereo not drawn) on Plasmopara viticola gives Eff. % = 90

With Plasmopara viticola as the test system, Cn1c(/C(=N\OCc2csc(NC(=O)COc3cccc(F)c3)n2)c2ccccc2)noc1=O showed Eff. % of 74

Eff. % value, target or system Plasmopara viticola, for Cc1cccc(C(=O)Nc2cccc(CO/N=C(/c3ccccc3)c3noc(=O)n3C)n2)c1 : 93

Noted Eff. % for Cn1c(/C(=N\OCc2cccc(NC(=O)OC(C)(C)C)n2)c2ccccc2)noc1=O , tested on Plasmopara viticola: 100

Observed Eff. % on Plasmopara viticola, entry Cn1c(/C(=N\OCc2cccc(NC(=O)c3cccc(F)c3)n2)c2ccccc2)noc1=O , equals 94

Record for CCn1c(/C(=N\OCc2cccc(NC(=O)OC(C)(C)C)n2)c2ccccc2)noc1=O under target or system Plasmopara viticola: Eff. % reported as 70

====

- experiment: Measurement of log P values by HPLC on reversed phase columns (EEC directive 79/831 Annex V.A8)
- study-conditions: method [a]; HPLC on reversed phase columns
Measured LogP, listed per entry.

Below: 3 molecules and their reported LogP.
C#CCCCCC(=O)Nc1cccc(CO/N=C(/c2ccccc2)c2noc(=O)n2C)n1 [Example 37] : 3.37 [a]
CC(Oc1ccccc1)C(=O)Nc1nc(CO/N=C(/c2ccccc2)c2noc(=O)n2C)cs1 (stereo not drawn) [Example 19] : 3.71 [a]
Cn1c(/C(=N\OCc2cccc(NC(=O)C3(C)CCCCC3)n2)c2ccccc2)noc1=O [Example 40] : 4.36 [a]

The molecule listed as C=CCCCOC(=O)Nc1cccc(CO/N=C(/c2ccccc2)c2noc(=O)n2C)n1 [Example 6] has a reported LogP of 4.06 [a]

Reported LogP of COc1cccc(C(=O)Nc2cccc(CO/N=C(/c3ccccc3)c3noc(=O)n3C)n2)c1 [Example 44] : 3.62 [a]

Given item Cn1c(/C(=N\OCc2cccc(NC(=O)C(c3ccccc3)c3ccccc3)n2)c2ccccc2)noc1=O [Example 46] , the value recorded as its LogP is 4.48 [a]

====

- study-conditions: pH 2.7
Marks after values point to notes of the source that are not given here.
Overview of recorded LogP for various molecules

Cn1c(/C(=N\OCc2cccc(NC(=O)c3ccccc3)n2)c2ccccc2)noc1=O : 3.51 [a]

GET /value?item= Cn1c(/C(=N\OCc2cccc(NC(=O)CCc3ccc(F)cc3)n2)c2ccccc2)noc1=O &field=LogP returns 3.81 [a]

Recorded LogP (molecule Cn1c(/C(=N\OCc2cccc(NC(=O)C3(C)CC3)n2)c2ccccc2)noc1=O ): 3.31 [a]

Consider Cn1c(/C(=N\OCc2csc(NC(=O)c3cccc(Br)c3)n2)c2ccccc2)noc1=O . Its measured LogP is 4.04 [a]

Per the records, this molecule ( CC(Oc1ccccc1Br)C(=O)Nc1cccc(CO/N=C(/c2ccccc2)c2noc(=O)n2C)n1 (centres unmarked) ) has LogP equal to 4.53 [a]

So for Cn1c(/C(=N\OCc2cccc(NC(=O)OCc3ccc(C#N)cc3)n2)c2ccccc2)noc1=O , the logged LogP turned out to be 3.61 [a]

Lab book: LogP of COC(C)(C)CCOC(=O)Nc1cccc(CO/N=C(/c2ccccc2)c2noc(=O)n2C)n1 noted as 3.59 [a]

Measured LogP of Cn1c(/C(=N\OCc2cccc(NC(=O)c3ccccc3F)n2)c2ccccc2)noc1=O : 3.73 [a]
